STUDY_TARGET: T1, FX activation peptide 12-mer SITWKPYDAADL (human)
T1 peptide: SITWKPYDAADL-biotin
PROCEDURE_SUMMARY: peptide ELISA
Ends that are not written are not given here.
I'd appreciate it if you could supply ELISA signal relative to background values for the items below.
Number only, no unit.

GET /value?item= Nb 729A04 (VHH, monovalent Nanobody; not shown: C-terminal FLAG3 and HIS6 tag) VHH: EVQLVESGGGVVQPGGSLRLSCAASGFTFSDYAMSWVRQAPGKGLEWVSGITSGGGRTYYADSVKGRFTISRDNSKNTLYLQMNSLRPEDTALYYCAAVRTLGLRGSYDYWGQGTLVTVSS &field=ELISA signal relative to background returns 1.13

GET /value?item= Nb 701C06 (VHH, monovalent Nanobody; not shown: C-terminal FLAG3 and HIS6 tag) VHH: EVQLVESGGGVVQPGGSLRLSCAASGRTFSTYAMGWFRQAPGKEREFVAAISRRGGRTYYADSVKGRFTISRDNSKNTVYLQMNSLRPEDTALYYCAADATARDGLLDYWGQGTLVTVSS &field=ELISA signal relative to background returns 0.94

GET /value?item= Nb 729C08 (VHH, monovalent Nanobody; also called Nb 729008; not shown: C-terminal FLAG3 and HIS6 tag) VHH: EVQLVESGGGVVQPGGSLRLSCAASGFTFSDYAMSWVRQAPGKGLEWVSGITGGGRTYYADSVKGRFTISRDNSKNTLYLQMNSLRPEDTALYYCAAAILTRTRRTYDYWGQGTLVTVSS &field=ELISA signal relative to background returns 1.11

GET /value?item= Nb 702C12 (VHH, monovalent Nanobody; not shown: C-terminal FLAG3 and HIS6 tag) VHH: EVQLVESGGGVVQPGGSLRLSCVASGRTFSRYAMGWFRQAPGKEREFVAAISRRGGSTNYADSVKGRFTISRDNSKNTVYLQMNSLRPEDTALYYCAADYSSGDGYLDYWGQGTLVTVSS &field=ELISA signal relative to background returns 1.08
